# System: rat vas deferens
# Protocol summary: Effect on Rat Isolated Vas Deferens
# Assay type: cell-based
# Condition description: rat isolated vas deferens, cumulative dose-response, 31° C.
Readout type: EC50 (µM)

Solved entries:
Compound | Measurement
CC1(C)C=C(C(O)CN)c2ccccc21 (stereo not drawn) | 2
CNCC(O)C1=CC2(CCCC2)c2ccccc21 (racemic) | 0.15
COc1ccc2c(c1)C(C(O)CN)=CC21CCCC1 (stereo not drawn) | 50
NCC(O)C1=CC2(CCC2)c2ccccc21 (stereo not drawn) | 15

(A) CC(C)NCC(O)C1=CC2(CCCC2)c2ccccc21 (stereo not drawn)
(B) NCC(O)C1=CC2(CCCC2)c2ccccc21 (stereo not drawn)
*Q* Between the entries labelled A and B , which has a larger EC50 value on record? Pick one and reply with its label.
*A* B

Data credit: patent US4218472A
